Entry source: the EternaBench riboswitch data

- Tested on: MS2 coat protein
- assay_remarks: apparent Kd, MS2 coat protein; higher = weaker binding; RNA-MaP array; FMN 200 µM where present
- condition_parameters: ligand present: flavin mononucleotide; designed as: OFF switch for flavin mononucleotide
Provide the recorded apparent Kd for the entries that follow.
State just the number; it will be interpreted in nM.

Query block: Name the recorded apparent Kd for UGCUAGUGAGGAUAUGCUGGAAUAAAGAUUUGACGUGGCGAACAUGAGGAUCACCCAUGUAGAAGGCACAAUAC .
Result block: 15.7

Query block: Next sequence: AAGUAGGUAGGAUAUGCAUAGAUAUACAUUCAUGUGGAUUUACAUGAGGAUCACCCAUGUAGAAGGACCUAAUA
Result block: 136

Query block: Next sequence: GUCAGCUCGUGAGGAUAUACAUGUGCUGGAUACAGCACUAUUAAGUUCACAUGAGGAUCACCCAUGUAGAAGGCACGAGCUGAU
Result block: 20.4

Query block: Next sequence: GAGCUAUGAGGAUAUGCAUAUAUACGGAUUCGUGUGGUACUACAUGAGGAUCACCCAUGUAGAAGGCGUGGCUG
Result block: 20.8

Query block: Next sequence: AGUGUAUCCCUAGGAUAUGCACAUGAGGAUCACCCAUGUAAACCCGCGCAGGCUCUUCUCAUGUCGCAGAAGGAGGGACCCGGA
Result block: 39.6

---

Provide the recorded apparent Kd for the entries that follow.
- Tested on: MS2 coat protein
- assay_remarks: apparent Kd, MS2 coat protein; higher = weaker binding; RNA-MaP array; FMN 200 µM where present
- condition_parameters: ligand present: flavin mononucleotide; designed as: OFF switch for flavin mononucleotide

Query block: Name the recorded apparent Kd for UUCUAACGAGGAUAUCGAUGGUGGAACAUGAGGAUCACCCAUGUAUGAGAUAUUGUAGUUCGAGAAGGCGUUCAGU .
Result block: 32.5 nM

Query block: Next sequence: UUUUAACAUGAGGAUCACCCAUGUGAGGAUAUCGAAAUUUAUAUUAAUAUUUAUAAUACGAGAAGGCACAUUUU
Result block: 90.6 nM

Query block: Next sequence: GGAUAGGACAGAGGAUAUACGUGCUAGAGGUACUAGCAAAAUUUCCUCACAUGAGGAUCACCCAUGUAGAAGGCUGUCCUAUCG
Result block: 461 nM

Query block: Next sequence: CGAUCGUGUAGAGGAUAUGUUAAACAUGAGGAUCACCCAUGUAAGGUAGAAAUUUUUAUAAACAUACAGAAGGCUACACGAUCG
Result block: 5.15 nM

Query block: Next sequence: GCCUCAUAGUAGAAGGGACUUAGACAGUAAAGUUUAUAGAGGAAAUAACAUGAGGAUCACCCAUGUCAGGAUAUACUAAGAGGC
Result block: 9.47 nM

Query block: Next sequence: GGUUGGCGAGGAUAUACAUGAGGAUCACCCAUGUGGUCCUGUGGCUGGUCUUGACUUUGUAGAAGGCGCGGGUC
Result block: 55.3 nM

Query block: Next sequence: UUUAGUUCAGGAUAUGUAGAUUUUAACAUGAGGAUCACCCAUGUAGAUCCUGAAUUAACUACAGAAGGGAACAUUA
Result block: 75.4 nM

Query block: Next sequence: AAUAACAGAGGAUAUACUAUUUUAUGUGUUUGUUAUUUUAAACAUGAGGAUCACCCAUGUAGAAGGCUGAUUGA
Result block: 46.6 nM

Query block: Next sequence: CUGUUACAUGAGGAUCACCCAUGUAAGGAUAUCUGCCACUAGAGGGUCACUUUGGGAUGGAGAAGGUACACGGG
Result block: 68.6 nM

Query block: Next sequence: UAUAUAUAGUAAGGAUAUGUAUAUAUUUUAUUAACAGAAGGUACUGACAUGAGGAUCACCCAUGUUUUAGUGUGGGCAUGUAGA
Result block: 100 nM

Query block: Next sequence: AGCUGUGGCCGAGGAUAUCUAAAUUCUUAAAACGAAAUAUAAUCGAACAUGAGGAUCACCCAUGUAGAGAAGGCGGUCUCAGCA
Result block: 20.7 nM

---

- Tested on: MS2 coat protein
- assay_remarks: apparent Kd, MS2 coat protein; higher = weaker binding; RNA-MaP array; FMN 200 µM where present
- condition_parameters: ligand present: flavin mononucleotide; designed as: OFF switch for flavin mononucleotide
test_readout: apparent Kd (nM)
State just the number; it will be interpreted in nM.

Query block: Name the recorded apparent Kd for CACUUGGCAGGAUAUGCAAUUUUAGACAUGAGGAUCACCCAUGUGAUCAUUCCAUAUUAUGCAGAAGGGCCUAAAC .
Result block: 747

Query block: Next sequence: GGCGGUCCUUAAUGCACCUGCACAUGAGGAUCACCCAUGUACAGAAGGGCCAGCACCGAAGUAUGGCAGGAUAUGUCGCACGAG
Result block: 10.1

Query block: Next sequence: GGGCCCGGAGGAUAUACAAUGGGCCCGGGAAACCGGGUUUUACAUGAGGAUCACCCAUGUAGAAGGCCGGGUUU
Result block: 15.4

Query block: Next sequence: GCUAGUGCUGUGAGGAUAUGUGAUCGGAAAUGAUCGUAGAAGGCACAUGAGGAUCACCCAUGUAAGGUGCUAGU
Result block: 37.6

Query block: Next sequence: ACUUAUUGAGGAUAUACAGAAAAUUACAUGAGGAUCACCCAUGUUCUUCAAUGUAUAUAUGUAGAAGGCAGAAUAG
Result block: 27.6

Query block: Next sequence: GCGAUGUUAGGAUAUACAUGAGGAUCACCCAUGUUCAGACUGAGCCUAGAGCGUCUAUGUAGAAGGGACUCGCA
Result block: 43.1

Query block: Next sequence: UAGAAGUCAGGAUAUCCAGCUCGUCACUUGCGUGAUGAGUUGGAGAAGGGACAUGAGGAUCACCCAUGUAAAGC
Result block: 46.5

Query block: Next sequence: UAGAUGGCUCAGGAUAUUUGCCAACUAACUCGCGAAGAAGGGAGCACAUGAGGAUCACCCAUGUGAUCGAACGG
Result block: 45.6

Query block: Next sequence: AAGUCAGCAGGAUAUGCGAUGUUGUGCUAGAUAGCGUGACCACAUGAGGAUCACCCAUGUAGAAGGGCUGGCUA
Result block: 20.2

---

- Test system: MS2 coat protein
- assay_remarks: apparent Kd, MS2 coat protein; higher = weaker binding; RNA-MaP array; FMN 200 µM where present
- condition_parameters: ligand present: flavin mononucleotide; designed as: ON switch for flavin mononucleotide
test_readout: apparent Kd (nM)
State just the number; it will be interpreted in nM.

Query block: Name the recorded apparent Kd for GUAUAUCACUAAGGAUAUCUGUAAUAUGUUGAAACAUGAGGAUCACCCAUGUUCAUGUAUUUAUAGGAGAAGGUAGAGAUAUAC .
Result block: 4.15

Query block: Next sequence: CCCUCACAUGAGGAUCACCCAUGUCCUAGCCCGUCAGGAUAUAGCCCGCAUCCGCUGCGGCUAGAAGGGACAGCUG
Result block: 141

Query block: Next sequence: GGUACCAUCACAGGAUAUGCAAUCCUUUGGGUUGCAGAAGGGUGUAACAUGAGGAUCACCCAUGUGGUGCCAGGGCGUGAGCCC
Result block: 44.5

Query block: Next sequence: GAGAGAGGGUGAGGAUAUUCAGUAAUAAUGAUAGAAGAAGGCACAGACAUGAGGAUCACCCAUGUGGGAAUAAUCCAGAGAGAG
Result block: 207

Query block: Next sequence: GGACGUCGCAUUAACAUGAGGAUCACCCAUGUCAAAGGACAUGAGGAUAUGGAUCCUAAUUGGAUCCAGAAGGCAUGGACGUCC
Result block: 35.8

Query block: Next sequence: UUGGACGUCGUAGGAUAUGUAGGAUUUUCCUACAUGAGGAUCACCCAUGUUGACAUGGAAGAAGGACAGAAGGACGAUGUCCAU
Result block: 16.3

Query block: Next sequence: UGCCUGAGUCGAGGAUAUUAUGGAUCCUUUAAUACAUGAGGAUCACCCAUGUAAUUAAUUAUACAUGAGAAGGCGACUCAGGCU
Result block: 12.5

Query block: Next sequence: GGUCGUCACAUUAACAUGAGGAUCACCCAUGUGAAAACACAUGAGGAUAUGCAUCCUAAUUGGAUGCAGAAGGCAUGGACGACC
Result block: 6.28

---

Provide the recorded apparent Kd for the entries that follow.
- Test system: MS2 coat protein
- assay_remarks: apparent Kd, MS2 coat protein; higher = weaker binding; RNA-MaP array
- condition_parameters: designed as: OFF switch for flavin mononucleotide; no ligand
Kindly format the answer as number then unit.

Query block: Name the recorded apparent Kd for GACCUCCUGCGAGCACAUGAGGAUCACCCAUGUAAGGACCUGAGAAGGCACCGUUAAGAUUGGAGUGAGGAUAUCAGGAUAUAG .
Result block: 23.5 nM

Query block: Next sequence: GUGACUAGCGUAAGGAUAUUCACGAGCGGCGGCUUGAAGAAGGUACAUGAGGAUCACCCAUGUAGGGUAAUCAA
Result block: 41.6 nM

Query block: Next sequence: AUAAACCUAACAUGAGGAUCACCCAUGUCCUCCGUCGGUCGAAGAAGGAGUAAUGCUUAUUUUUACUAGGAUAUUCGUAAUCAC
Result block: 90.2 nM

Query block: Next sequence: UGGCACAAGUUAGGAUAUAGCACUUCUGUAAAGCUAGAAGGAACGUUGCACAUGAGGAUCACCCAUGUCAGUAAUUGAUAUGUA
Result block: 10.1 nM

Query block: Next sequence: UGCCAACAUGAGGAUCACCCAUGUCAGGAUAUCCGGGAGCACUUCAGUAGAAUCCGCUGGAGAAGGGACAUAGG
Result block: 24.3 nM

Query block: Next sequence: UAAAAGUUAGGAUAUACUAGUGAGCAAUGAAUAACAAAGUAACAUGAGGAUCACCCAUGUAGAAGGAACUGCAG
Result block: 12.1 nM
